The origin of these recorded values is PubChem BioAssay (NCI).

# TGI annotations
Tested on: NCI-H460 lung
Experiment: NCI tumour cell line growth inhibition, 48 h

>>> print(df.to_string())
                                   compound  propertylabel     result
0  O=C(O)c1cc2ccccc2c(N=Nc2ccc(S(=O)(=O)Nc3nccs3)cc2)c1O            TGI   > 100 µM
1  COc1ccc(S(=O)(=O)N2CC(C)(C)CN(S(=O)(=O)c3ccc(OC)cc3)C2C(=O)NO)cc1            TGI    > 20 µM
2            O=C1c2ccccc2C(Br)(Br)c2ccccc21            TGI  > 31.6 µM
3  N/C(=N\S(=O)(=O)c1ccc(S(=O)(=O)c2ccccc2)s1)Nc1ccc(Cl)cc1            TGI    33.8 µM
4  COC(=O)[C@@H]1[C@@H](c2cccc(Cl)c2)[C@H](C(=O)OC)C2(C[C@@]1(C)O)NCCS2 (stereo not given in full)            TGI   > 100 µM
5  C[n+]1c(-c2ccc(/C=N/NC(=N)N/N=C/c3ccc(-c4cn5cc(Cl)ccc5[n+]4C)cc3)cc2)cn2cc(Cl)ccc21            TGI   > 100 µM
6  C#CCOc1cccc(-c2ncnc3cc(NC(=O)CCl)ccc23)c1            TGI    1.45 µM
7  CCCNNC(=O)/C=C/c1ccc(CNCCc2c(C)[nH]c3ccccc23)cc1            TGI    3.57 µM

Requested read-out: TGI. Entry: CC(NC(=O)C(C)NC(=O)C(N)CCP(C)(=O)O)C(=O)O (stereo not given)
> 100 µM

COc1ccc(-n2cnnc2-c2nsc3ccccc23)cc1 ?
> 100 µM
